PROTOCOL: Metabolic stability in Beagle dog hepatocyte assessed as parent compound remaining at 10 uM incubated for 30 mins by LC-MS/MS analysis
Type: ADME, cell-based, Canis lupus familiaris
PARTICULARS: hepatocytes, read-out: Stability
READOUT_TYPE: remaining at 0.5 h, 10 µM (%)

- C#CCN(C)Cc1cccc(NC(=O)CCCCCCC(=O)NO)c1: 91.6

---

PROTOCOL: AUC (0 to infinity) in Sprague-Dawley rat at 2 mg/kg, iv administered as single dose through tail vein measured upto 24 hrs post dose by UPLC-MS/MS analysis
Assay type: ADME, organism-based
Set-up: dose 2 mg/kg, time < 24 hrs, route iv
PARTICULARS: in vivo
READOUT_TYPE: AUC(0-inf) (ng·h/mL)

• C#CCN(C)Cc1cccc(NC(=O)CCCCCCC(=O)NO)c1 = 76.8

---

PROTOCOL: AUC (0 to 24 hrs) in Sprague-Dawley rat at 25 mg/kg, po formulated using SMEDDS administered once via gavage measured upto 24 hrs post dose by UPLC-MS/MS analysis
Type: ADME, organism-based
Set-up: dose 25 mg/kg, time < 24 hrs, route po
PARTICULARS: in vivo
READOUT_TYPE: AUC(0-t) at 24 h

• C#CCN(C)Cc1cccc(NC(=O)CCCCCCC(=O)NO)c1 = 587 ng·h/mL

---

PROTOCOL: Cmax in Sprague-Dawley rat at 25 mg/kg, po administered once via gavage measured upto 24 hrs post dose by UPLC-MS/MS analysis
Format: ADME, organism-based
Parameters: dose 25 mg/kg, time < 24 hrs, route po
PARTICULARS: in vivo
READOUT_TYPE: Cmax (ng/mL)

- C#CCN(C)Cc1cccc(NC(=O)CCCCCCC(=O)NO)c1: 74.1

---

PROTOCOL: Tmax in Sprague-Dawley rat at 25 mg/kg, po administered once via gavage measured upto 24 hrs post dose by UPLC-MS/MS analysis
Type: ADME, organism-based
PARTICULARS: in vivo
READOUT_TYPE: Tmax (min)

• C#CCN(C)Cc1cccc(NC(=O)CCCCCCC(=O)NO)c1 = 30

---

PROTOCOL: Tmax in Sprague-Dawley rat at 25 mg/kg, po formulated using SMEDDS administered once via gavage measured upto 24 hrs post dose by UPLC-MS/MS analysis
Type: ADME, organism-based
PARTICULARS: in vivo
READOUT_TYPE: Tmax (min)

* C#CCN(C)Cc1cccc(NC(=O)CCCCCCC(=O)NO)c1 | 54

---

PROTOCOL: Metabolic stability in human hepatocyte assessed as parent compound remaining at 10 uM by LC-MS/MS analysis
Assay type: ADME, cell-based
PARTICULARS: hepatocytes, read-out: Stability
READOUT_TYPE: remaining at 10 µM (%)

- C#CCN(C)Cc1cccc(NC(=O)CCCCCCC(=O)NO)c1: 100

---

PROTOCOL: Metabolic stability in human hepatocyte assessed as parent compound remaining at 10 uM incubated for 60 mins by LC-MS/MS analysis
Type: ADME, cell-based
PARTICULARS: hepatocytes, read-out: Stability
READOUT_TYPE: remaining at 1 h, 10 µM (%)

* C#CCN(C)Cc1cccc(NC(=O)CCCCCCC(=O)NO)c1 | 102

---

PROTOCOL: Half life in Sprague-Dawley rat at 2 mg/kg, iv administered as single dose through tail vein measured upto 24 hrs post dose by UPLC-MS/MS analysis
Format: ADME, organism-based
PARTICULARS: in vivo
READOUT_TYPE: half-life (h)

* C#CCN(C)Cc1cccc(NC(=O)CCCCCCC(=O)NO)c1 | 8.1

---

PROTOCOL: Metabolic stability in Beagle dog hepatocyte assessed as parent compound remaining at 10 uM incubated for 240 mins by LC-MS/MS analysis
Format: ADME, cell-based, Canis lupus familiaris
PARTICULARS: hepatocytes, read-out: Stability
READOUT_TYPE: remaining at 4 h, 10 µM

- C#CCN(C)Cc1cccc(NC(=O)CCCCCCC(=O)NO)c1: 46.6%

---

PROTOCOL: Oral bioavailability in Sprague-Dawley rat at 25 mg/kg formulated using SMEDDS administered once via gavage measured upto 24 hrs post dose by UPLC-MS/MS analysis
Assay type: ADME, organism-based
PARTICULARS: in vivo
READOUT_TYPE: bioavailability (%)

* C#CCN(C)Cc1cccc(NC(=O)CCCCCCC(=O)NO)c1 | 62.1

---

PROTOCOL: Metabolic stability in human hepatocyte assessed as intrinsic clearance at 10 uM by LC-MS/MS analysis
Format: ADME, cell-based
PARTICULARS: hepatocytes, read-out: CLH
READOUT_TYPE: CLint scaled at 10 µM

• C#CCN(C)Cc1cccc(NC(=O)CCCCCCC(=O)NO)c1 = 9.78 mL/min/kg

---

PROTOCOL: Metabolic stability in Sprague-Dawley rat hepatocyte assessed as parent compound remaining at 10 uM incubated for 30 mins by LC-MS/MS analysis
Type: ADME, cell-based
PARTICULARS: hepatocytes, read-out: Stability
READOUT_TYPE: remaining at 0.5 h, 10 µM (%)

- C#CCN(C)Cc1cccc(NC(=O)CCCCCCC(=O)NO)c1: 72.2

---

Quick reference for GI50 among some compounds
Tested on: PC-3
PROTOCOL: Antiproliferative activity against human PC-3 cells assessed as cell growth inhibition incubated for 48 hrs by MTT assay
Assay type: functional
READOUT_TYPE: GI50 (µM)

• C#CCN(C)Cc1cccc(NC(=O)CCCCCCC(=O)NO)c1 = 0.33
• C#CCN(C)Cc1cccc(NCc2ccc(/C=C/C(=O)NO)cc2)c1 = 0.85
• C#CCN(C)Cc1ccc(NC(=O)CCCCCCCC(=O)NO)cc1 = 7.16
• C#CCN(C)Cc1cccc(NS(=O)(=O)c2cccc(/C=C/C(=O)NO)c2)c1 = 1.23
• C#CCN(C)Cc1cccc(NC(=O)CCCCCCCC(=O)NO)c1 = 4.07
• C#CCN(C)Cc1ccc(NC(=O)CCCCCCCCC(=O)NO)cc1 = 4.26
• C#CCN(C)Cc1cccc(NC(=O)CCCCCCCCC(=O)NO)c1 = 1.79
• C#CCN(C)Cc1cccc(NC(=O)CCCCC(=O)NO)c1 = 5.15
• C#CCN(C)Cc1ccc(NCc2ccc(/C=C/C(=O)NO)cc2)cc1 = 0.75
• C#CCN(C)Cc1ccc(NS(=O)(=O)c2ccc(/C=C/C(=O)NO)cc2)cc1 = 0.71
• C#CCN(C)Cc1cccc(NC(=O)CCCCCC(=O)NO)c1 = 4.63
• C#CCN(C)Cc1ccc(NC(=O)CCCCCCC(=O)NO)cc1 = 2.28
• C#CCN(C)Cc1cccc(NS(=O)(=O)c2ccc(/C=C/C(=O)NO)cc2)c1 = 2.23
